Test system: DERL-7 (IL-2 2.5 ng/mL)
Test: percent inhibition of viability; higher = more inhibition;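 also: normalised to DMSO-only wells as negative and benzethonium chloride as positive control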
Conditions: 72 h; 10 nM
parameter: percent inhibition of viability

{"compound": "Cc1c(N)nc([C@H](CC(N)=O)NC[C@H](N)C(N)=O)nc1C(=O)N[C@H](C(=O)N[C@H](C)[C@@H](O)[C@H](C)C(=O)N[C@H](C(=O)NCCc1nc(-c2nc(C(=O)NCCC[S+](C)C)cs2)cs1)[C@@H](C)O)[C@@H](OC1OC(CO)C(O)C(O)C1OC1OC(CO)C(O)C(OC(N)=O)C1O)c1cnc[nH]1 (stereo partly drawn) [Bleomycin] (max concentration tested 10000 nM)", "obsValue": "-2.28%"}
{"compound": "CC(C)[C@H](C(=O)Nc1ccc(C(=O)NO)cc1)c1ccccc1 [AR-42] (max concentration tested 10000 nM)", "obsValue": "2.48%"}
{"compound": "Cc1ccc(-n2nc(C(C)(C)C)cc2NC(=O)Nc2ccc(OCCN3CCOCC3)c3ccccc23)cc1 [Doramapimod] (max concentration tested 10000 nM)", "obsValue": "0.45%"}
{"compound": "COc1nc(N)nc2c1ncn2[C@@H]1O[C@H](CO)[C@@H](O)[C@@H]1O [Nelarabine] (max concentration tested 10000 nM)", "obsValue": "7.77%"}
{"compound": "N#Cc1ccc2[nH]c(O)c(-c3ccc(CN4CCOCC4)cn3)c2c1 [AZD-1080] (max concentration tested 10000 nM)", "obsValue": "-2.27%"}
{"compound": "NC(=O)Nc1cc(-c2cccc(F)c2)sc1C(=O)N[C@H]1CCCNC1 [AZD7762] (max concentration tested 1000 nM)", "obsValue": "-2.38%"}
{"compound": "O=C(O)CCCc1ccc(N(CCCl)CCCl)cc1 [Chlorambucil] (max concentration tested 10000 nM)", "obsValue": "-2.26%"}
{"compound": "NC(=S)N/N=C/c1ncccc1N [Triapine] (max concentration tested 10000 nM)", "obsValue": "2.72%"}

###

Let's look at some molecules and their measured percent inhibition of viability.
Test system: normal primary NK cells, pool 1 (3 donors) (IL-2 2.5 ng/mL)
Assay: percent inhibition of viability; higher = more inhibition
Conditions: 72 h; 10000 nM
parameter: percent inhibition of viability (%)

{"molecule": "O=C(O)CCCc1ccc(N(CCCl)CCCl)cc1 [Chlorambucil] (max concentration tested 10000 nM)", "obsValue": 70.4}
{"molecule": "Nc1ccccc1NC(=O)c1ccc(CNc2nccc(-c3cccnc3)n2)cc1 [Mocetinostat] (max concentration tested 10000 nM)", "obsValue": 90.7}
{"molecule": "C[C@@H](C(=O)O)c1ccc(-c2ccccc2)c(F)c1 [Tarenflurbil] (max concentration tested 10000 nM)", "obsValue": 7.48}
{"molecule": "C=C(c1ccc(C(=O)O)cc1)c1cc2c(cc1C)C(C)(C)CCC2(C)C [Bexarotene] (max concentration tested 10000 nM)", "obsValue": 2.54}
{"molecule": "Nc1nc(Cl)nc2c1ncn2[C@@H]1O[C@H](CO)[C@@H](O)[C@@H]1F [Clofarabine] (max concentration tested 10000 nM)", "obsValue": 97.6}
{"molecule": "CN(C)CCN1C(=O)c2cccc3cc(N)cc(c23)C1=O [Amonafide] (max concentration tested 10000 nM)", "obsValue": 97.5}
{"molecule": "NC(=S)N/N=C/c1ncccc1N [Triapine] (max concentration tested 10000 nM)", "obsValue": 57.7}
{"molecule": "CC[C@H](C)C(=O)O[C@H]1C[C@@H](C)C=C2C=C[C@H](C)[C@H](CC[C@@H]3C[C@@H](O)CC(=O)O3)[C@H]21 [Lovastatin] (max concentration tested 10000 nM)", "obsValue": 0.82}
{"molecule": "NS(=O)(=O)OC[C@@H]1C[C@@H](n2ccc3c(N[C@H]4CCc5ccccc54)ncnc32)C[C@@H]1O [Pevonedistat] (max concentration tested 10000 nM)", "obsValue": 69.8}
